Data origin: paper PMC12766730

System: PANC-1
PROTOCOL NOTES: PDAC cell viability after 72 h of treatment, PANC-1
Assay type: cell-based
EXPERIMENTAL PARAMETERS: Homo sapiens, PANC-1, exogenous β-glucuronidase added, representative experiment, read-out: IC50 on PANC-1, representative viability data (Figure 7a)
Protocol: All ortho-quinone prodrug derivatives were tested on two pancreatic cancer cell lines, PANC-1 and AsPC-1, to assess efficacy in cell killing (Figures , S88–89, S91, Tables , and S8.1). Exogenous β-glucuronidase was added to the cell media to mimic the extracellular enzyme present in the TME. […] Those derivatives with release rates slower than that of 16a, like 16e, had less efficacy in cells comparatively (Table ). 7 PDAC cell viability with prodrug treatment. […]
Would you kindly list pIC50 for each of these molecules?
pIC50 (log units): -log10 of the concentration in mol/L.

Problem: I have this molecule here, COc1cc(O[C@@H]2O[C@H](C(=O)O)[C@@H](O)[C@H](O)[C@H]2O)ccc1CC1(O)C(=O)C2=C(OC(C)(C)CC2)c2ccccc21 (mixture of isomers) [16f] , and I need its recorded pIC50.
Solution: 6.22

Problem: Also, CC(c1ccc(O[C@@H]2O[C@H](C(=O)O)[C@@H](O)[C@H](O)[C@H]2O)cc1)C1(O)C(=O)C2=C(OC(C)(C)CC2)c2ccccc21 (stereo partly drawn) [16i] please.
Solution: 6.52

Problem: Also, CC1(C)CCC2=C(O1)c1ccccc1C(O)(Cc1ccc(O[C@@H]3O[C@H](C(=O)O)[C@@H](O)[C@H](O)[C@H]3O)cc1)C2=O (stereo partly drawn) [16a] please.
Solution: 4.96

---

System: PANC-1
PROTOCOL NOTES: PDAC cell viability after 72 h of treatment, PANC-1
Format: cell-based
EXPERIMENTAL PARAMETERS: exogenous β-glucuronidase added, average ± SD of biological replicates, read-out: PANC-1 IC50
VALUE KIND: IC50 (µM)
Please give a number only; it is taken to be in µM.

Problem: I have this molecule here, CC1(C)CCC2=C(O1)c1ccccc1C(O)(Cc1ccccc1)C2=O (stereo not shown) [compound 27, reference compound] , and I need its recorded IC50.
Solution: 70

---

Would you kindly list pIC50 for each of these compounds?
Tested on: AsPC-1
PROTOCOL NOTES: PDAC cell viability after 72 h of treatment, AsPC-1
Type: cell-based
EXPERIMENTAL PARAMETERS: Homo sapiens, ASPC1, exogenous β-glucuronidase added, average ± SD of biological replicates, read-out: AsPC-1 IC50
pIC50 (log units): -log10 of the concentration in mol/L.

Problem: Given the entry CC(c1ccc(O[C@@H]2O[C@H](C(=O)O)[C@@H](O)[C@H](O)[C@H]2O)cc1)C1(O)C(=O)C2=C(OC(C)(C)CC2)c2ccccc21 (some centres unmarked) [16i] , what pIC50 was observed with AsPC-1?
Solution: 6.05

Problem: Also, COc1cc(O[C@@H]2O[C@H](C(=O)O)[C@@H](O)[C@H](O)[C@H]2O)cc(OC)c1CC1(O)C(=O)C2=C(OC(C)(C)CC2)c2ccccc21 (mixture of isomers) [16g] please.
Solution: 5.80

Problem: Also, CC1(C)CCC2=C(O1)c1ccccc1C(O)(Cc1ccc(O[C@@H]3O[C@H](C(=O)O)[C@@H](O)[C@H](O)[C@H]3O)cc1)C2=O (some centres unmarked) [16a] please.
Solution: 4.72

Problem: Also, CC1(C)CCC2=C(O1)c1ccccc1C(=O)C2=O [compound 1, β-lapachone, reference compound] please.
Solution: 5.27

Problem: Also, COc1cc(O[C@@H]2O[C@H](C(=O)O)[C@@H](O)[C@H](O)[C@H]2O)ccc1CC1(O)C(=O)C2=C(OC(C)(C)CC2)c2ccccc21 (mixture of isomers) [16f] please.
Solution: 5.54

Problem: Also, COCCOc1cc(O[C@@H]2O[C@H](C(=O)O)[C@@H](O)[C@H](O)[C@H]2O)ccc1CC1(O)C(=O)C2=C(OC(C)(C)CC2)c2ccccc21 (some centres unmarked) [16j] please.
Solution: 5.55

Problem: Also, CC1(C)CCC2=C(O1)c1ccccc1C(O)(Cc1cc(F)c(O[C@@H]3O[C@H](C(=O)O)[C@@H](O)[C@H](O)[C@H]3O)c(F)c1)C2=O (some centres unmarked) [16b] please.
Solution: 4.62

Problem: Also, COc1cc(CC2(O)C(=O)C3=C(OC(C)(C)CC3)c3ccccc32)cc(OC)c1O[C@@H]1O[C@H](C(=O)O)[C@@H](O)[C@H](O)[C@H]1O (some centres unmarked) [16h] please.
Solution: 5.49
